Quick reference: Ki of the listed items.
Biological target: hMOR (Homo sapiens)
Sequence (P35372 whole entry): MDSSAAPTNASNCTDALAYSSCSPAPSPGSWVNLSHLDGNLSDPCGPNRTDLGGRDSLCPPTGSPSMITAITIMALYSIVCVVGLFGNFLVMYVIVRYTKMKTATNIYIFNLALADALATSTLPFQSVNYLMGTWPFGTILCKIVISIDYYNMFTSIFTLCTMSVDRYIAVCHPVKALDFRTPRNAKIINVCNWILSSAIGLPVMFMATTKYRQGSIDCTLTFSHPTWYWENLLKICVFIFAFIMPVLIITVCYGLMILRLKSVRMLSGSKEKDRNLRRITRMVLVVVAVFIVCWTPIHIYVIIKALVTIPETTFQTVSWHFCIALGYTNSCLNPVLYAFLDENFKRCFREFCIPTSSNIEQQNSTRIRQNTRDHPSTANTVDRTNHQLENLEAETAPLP
Assay: Radioligand binding assay (Eurofins Cerep), [3H]DAMGO displacement
Conditions: Table B1′; read-out: MOR Ki ± SEM
Only the number, expressed in µM, is required.

1. COC(=O)CC1CCN2CC=C(c3ccccc3)CC2C1 (stereo not shown) ... 6.98
2. COC(=O)CC1CCN2CCC(c3ccccc3)=CC2C1 (stereo not shown) ... 7.93
3. COC(=O)CC1CCN2CCC(O)(c3ccc(F)cc3)CC2C1 (stereo not shown) ... 0.424

Turning now to a further compound:
Q: May I ask what Ki has been recorded for CC[C@@H]1CN2CCc3c([nH]c4ccccc34)[C@@H]2C[C@@H]1/C(=C\OC)C(=O)OC [Corynantheidine, reference compound] ?
A: 2.52
